Tested on: Phosphatidylinositol 4-kinase beta (Homo sapiens)
Sequence (Q9UBF8 whole entry): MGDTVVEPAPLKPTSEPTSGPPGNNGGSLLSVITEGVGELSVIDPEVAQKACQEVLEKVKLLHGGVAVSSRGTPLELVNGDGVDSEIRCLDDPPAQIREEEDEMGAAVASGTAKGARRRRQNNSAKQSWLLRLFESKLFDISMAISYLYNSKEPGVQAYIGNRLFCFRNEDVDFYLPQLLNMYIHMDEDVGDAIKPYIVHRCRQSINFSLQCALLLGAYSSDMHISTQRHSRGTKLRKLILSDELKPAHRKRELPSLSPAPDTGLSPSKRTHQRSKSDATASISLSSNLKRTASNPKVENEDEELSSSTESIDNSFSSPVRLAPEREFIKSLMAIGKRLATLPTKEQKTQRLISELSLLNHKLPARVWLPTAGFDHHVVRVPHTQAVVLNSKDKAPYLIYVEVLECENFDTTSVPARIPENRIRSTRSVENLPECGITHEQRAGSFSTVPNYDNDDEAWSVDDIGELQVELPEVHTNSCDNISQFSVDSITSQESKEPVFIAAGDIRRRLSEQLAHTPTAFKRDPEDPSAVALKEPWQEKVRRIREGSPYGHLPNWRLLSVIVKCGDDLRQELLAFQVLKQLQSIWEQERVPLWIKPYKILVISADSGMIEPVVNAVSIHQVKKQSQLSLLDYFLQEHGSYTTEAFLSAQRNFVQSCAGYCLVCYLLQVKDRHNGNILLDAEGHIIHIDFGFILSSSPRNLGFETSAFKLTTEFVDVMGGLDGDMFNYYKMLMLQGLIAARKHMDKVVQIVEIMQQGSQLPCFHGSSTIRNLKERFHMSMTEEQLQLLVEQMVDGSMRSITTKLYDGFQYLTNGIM
Method: Inhibition of N-terminal GST-tagged human full length recombinant PI4K3beta expressed in Sf9 cells using D-myo-phosphatidylinositol substrate and ATP incubated for 45 mins by ADP-Glo kinase Assay
Metric: pIC50
The quantity pIC50 is defined as the negative base-10 logarithm of the molar concentration.

Lookup result for CCn1ccc(-c2ccc3nc(N)sc3c2)cc1=O ; measured pIC50: 6.50

Lab note: CC(C)Oc1cncc(-c2ccc3nc(N)sc3c2)c1 gave pIC50 of 6.00

Form: molecule = Nc1nc2ccc(-c3cc[nH]c(=O)c3)cc2s1 ; pIC50 = 6.20

For this molecule ( O=c1cc(-c2ccc3nc(NCC4CCS(=O)(=O)CC4)sc3c2)ccn1CC1CC1 ), measured pIC50 is 6.20

Recorded pIC50 (molecule CCNc1ccc(-c2ccc3nc(N)sc3c2)cn1 ): 6.00
